Source of measurements: ChEMBL document CHEMBL1141807

- Tested on: HT-29
- assayComment: Cytotoxicity against human HT-29 ATCC HTB-38 cells
- Type: functional, cell-based
metric: IC50 (µg/mL)
Use µg/mL as the unit, but write only the number.

The measured IC50 associated with CC1=C(O)C(=O)C=C2C1=CC(=O)[C@@H]1[C@@]2(C)CC[C@@]2(C)[C@@H]3C[C@@H](C)C(=O)C[C@]3(C)CC[C@]12C [AMAZOQUINONE] reads 5

The measured IC50 associated with `Cc1c(O)c(O)cc2c1C(=O)C[C@@H]1[C@@]2(C)CC[C@@]2(C)[C@@H]3C[C@@H](C)C(=O)C[C@]3(C)CC[C@]12C` reads 10

The measured IC50 associated with `C[C@@H]1C[C@@H]2[C@@](C)(CC[C@@]3(C)[C@@]2(C)CC=C2c4cc(O)c(O)c(C=O)c4C=C[C@]23C)CC1=O` reads 10

The measured IC50 associated with `CC1=C(O)C(=O)C=C2C1=C[C@H](O)[C@@H]1[C@@]2(C)CC[C@@]2(C)[C@@H]3C[C@@H](C)C(=O)C[C@]3(C)CC[C@]12C` reads 5
